readout-name: melting point

Study these solved cases before continuing.
- molecule: "C[C@H](NC(=O)P(=O)(O)O)C1CCCCC1 [Compound 9a]"
  result: "167 to 168 °C"
- molecule: "O=C(N[C@@H]1C[C@@H]2CC[C@H]1C2)P(=O)(O)O (relative stereo) [Compound 10]"
  result: "164 to 165 °C"
- molecule: "O=C(N[C@@H]1C[C@H]2CC[C@@H]1C2)P(=O)(O)O (relative stereo) [Compound 10a]"
  result: "170 to 172 °C"

Now take the following molecule into account.
// query melting point value for entry C[C@@H](NC(=O)P(=O)(O)O)C1CCCCC1 [Compound 9]
155 to 156 °C

---

# study-system: recombinant MMP-2 (Homo sapiens, UniProt P08253)
# Construct: purchased
# Sequence (P08253 110-660): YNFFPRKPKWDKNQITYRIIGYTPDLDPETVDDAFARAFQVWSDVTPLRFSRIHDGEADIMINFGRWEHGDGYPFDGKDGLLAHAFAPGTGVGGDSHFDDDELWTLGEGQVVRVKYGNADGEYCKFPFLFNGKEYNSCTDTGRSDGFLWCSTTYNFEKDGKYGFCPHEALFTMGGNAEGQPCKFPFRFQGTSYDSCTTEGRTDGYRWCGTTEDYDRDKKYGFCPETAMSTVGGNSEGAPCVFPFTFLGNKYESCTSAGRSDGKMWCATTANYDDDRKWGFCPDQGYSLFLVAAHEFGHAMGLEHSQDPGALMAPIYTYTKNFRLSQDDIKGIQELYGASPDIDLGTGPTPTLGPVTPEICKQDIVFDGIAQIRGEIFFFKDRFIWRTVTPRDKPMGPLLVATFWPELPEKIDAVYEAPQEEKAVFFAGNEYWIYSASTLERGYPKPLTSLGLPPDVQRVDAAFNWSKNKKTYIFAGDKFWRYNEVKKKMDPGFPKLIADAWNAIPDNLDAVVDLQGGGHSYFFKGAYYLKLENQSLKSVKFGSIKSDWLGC
# protocol: MMP inhibitory potency in vitro, succinylated-gelatin colorimetric assay
# Format: biochemical
# settings: Table 1; read-out: MMP-2 IC50
readout-name: IC50 (nM)
Respond with the bare value in nM.

Study these solved cases before continuing.
- structure-smiles-string: "O=C(NC1CCCCC1)P(=O)(O)O"
  IC50, nM: 3000
- structure-smiles-string: "O=C(NCC1CCCCC1)P(=O)(O)O"
  IC50, nM: 200

// query IC50 value for entry C[C@@H](NC(=O)P(=O)(O)O)C1CCCCC1
200

What about this molecule? O=C(NC1CCCC1)P(=O)(O)O
80

---

# key: entry, value: pIC50
# study-system: MMP-3 (Homo sapiens)
# Sequence (P08254 100-477, species assumed): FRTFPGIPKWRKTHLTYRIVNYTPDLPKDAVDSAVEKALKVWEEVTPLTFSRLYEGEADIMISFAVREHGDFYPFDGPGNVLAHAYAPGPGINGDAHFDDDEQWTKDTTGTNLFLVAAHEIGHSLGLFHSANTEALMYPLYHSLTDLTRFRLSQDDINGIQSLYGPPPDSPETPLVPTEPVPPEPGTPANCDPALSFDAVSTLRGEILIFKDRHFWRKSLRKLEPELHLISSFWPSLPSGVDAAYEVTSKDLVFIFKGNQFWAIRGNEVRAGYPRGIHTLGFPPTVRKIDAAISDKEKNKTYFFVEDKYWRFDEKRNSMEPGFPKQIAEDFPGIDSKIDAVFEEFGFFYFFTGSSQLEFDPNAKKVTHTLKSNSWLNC
# protocol: Selectivity towards different MMPs: MMP-3
# Format: biochemical
# settings: Table 2
pIC50: −log10 of the molar value.

- compound: "N[C@@H]1CCCC[C@@H]1NC(=O)P(=O)(O)O (relative stereo) [Compound 11]"
  result: "< 4.00"
- compound: "O=C(N[C@@H]1C[C@H]2CC[C@@H]1C2)P(=O)(O)O (relative stereo) [Compound 10a]"
  result: "< 4.00"
- compound: "O=C(N[C@@H]1C[C@@H]2CC[C@H]1C2)P(=O)(O)O (relative stereo) [Compound 10]"
  result: "< 4.00"
- compound: "N[C@H]1CCCC[C@@H]1NC(=O)P(=O)(O)O (relative stereo) [Compound 11a]"
  result: 4.60
- compound: "C[C@@H](NC(=O)P(=O)(O)O)C1CCCCC1 [Compound 9]"
  result: "< 4.00"

Now take the following compound into account.
// query pIC50 value for entry C[C@H](NC(=O)P(=O)(O)O)C1CCCCC1 [Compound 9a]
7.00

---

Below are molecules with their IC50 as measured on MMP-8 (Homo sapiens, UniProt P22894).
Sequence (P22894 101-467, species assumed): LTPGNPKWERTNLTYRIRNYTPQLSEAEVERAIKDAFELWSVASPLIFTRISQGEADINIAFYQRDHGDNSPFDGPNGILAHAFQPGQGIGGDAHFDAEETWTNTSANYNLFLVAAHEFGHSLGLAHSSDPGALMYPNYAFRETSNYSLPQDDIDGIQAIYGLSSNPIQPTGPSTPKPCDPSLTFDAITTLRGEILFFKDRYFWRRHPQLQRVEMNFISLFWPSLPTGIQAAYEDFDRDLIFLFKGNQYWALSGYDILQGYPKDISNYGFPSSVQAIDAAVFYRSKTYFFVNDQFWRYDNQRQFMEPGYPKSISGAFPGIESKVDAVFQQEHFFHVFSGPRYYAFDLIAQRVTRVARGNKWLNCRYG

Study these solved cases before continuing.
- molecule: "O=C(N[C@@H]1C[C@@H]2CC[C@H]1C2)P(=O)(O)O (relative stereo)"
  study-system: "MMP-8 (Homo sapiens, UniProt P22894)"
  IC50: "> 100 µM"
- molecule: "O=C(N[C@@H]1C[C@H]2CC[C@@H]1C2)P(=O)(O)O (relative stereo) [Compound 10a]"
  study-system: "MMP-8 (Homo sapiens, UniProt P22894)"
  IC50: "> 100 µM"
- molecule: "N[C@@H]1CCCC[C@@H]1NC(=O)P(=O)(O)O (relative stereo)"
  study-system: "MMP-8 (Homo sapiens, UniProt P22894)"
  IC50: "> 100 µM"

Now take the following molecule into account.
// query IC50 value for entry N[C@H]1CCCC[C@@H]1NC(=O)P(=O)(O)O (relative stereo) [Compound 11a]
50 µM

---

# study-system: recombinant MMP-9 (Homo sapiens, UniProt P14780)
# Construct: purchased
# Sequence (P14780 94-707, species assumed): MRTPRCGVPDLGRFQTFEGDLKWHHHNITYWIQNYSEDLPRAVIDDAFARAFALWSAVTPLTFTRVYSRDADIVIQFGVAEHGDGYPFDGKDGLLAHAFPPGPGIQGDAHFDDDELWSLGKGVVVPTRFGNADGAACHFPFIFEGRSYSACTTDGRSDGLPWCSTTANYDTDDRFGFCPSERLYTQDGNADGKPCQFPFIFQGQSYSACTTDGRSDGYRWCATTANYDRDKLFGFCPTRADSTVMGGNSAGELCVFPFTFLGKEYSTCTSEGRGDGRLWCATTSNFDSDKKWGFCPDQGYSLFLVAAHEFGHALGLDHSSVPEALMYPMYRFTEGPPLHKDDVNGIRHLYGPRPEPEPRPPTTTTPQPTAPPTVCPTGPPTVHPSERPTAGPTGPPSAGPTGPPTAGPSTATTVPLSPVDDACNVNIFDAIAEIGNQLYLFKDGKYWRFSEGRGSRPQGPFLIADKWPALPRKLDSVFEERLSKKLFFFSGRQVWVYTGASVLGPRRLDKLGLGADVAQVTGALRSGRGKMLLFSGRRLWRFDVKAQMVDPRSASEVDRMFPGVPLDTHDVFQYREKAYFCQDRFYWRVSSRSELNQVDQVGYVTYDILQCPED
# protocol: MMP inhibitory potency in vitro, succinylated-gelatin colorimetric assay
# Type: biochemical
readout-name: IC50 (µM)
Respond with the bare value in µM.

Study these solved cases before continuing.
- compound: "NCCNC(=O)P(=O)(O)O"
  IC50 [µM]: 2
- compound: "O=P(O)(O)C(=S)NCC1CCCCC1"
  IC50 [µM]: 0.015
- compound: "O=P(O)(O)C(=S)NC1CCCC1"
  IC50 [µM]: 50

Form: Entry = N[C@@H]1CCCC[C@@H]1NC(=O)P(=O)(O)O (relative stereo) | System = recombinant MMP-9 (Homo sapiens, UniProt P14780) | IC50 = ____
20

What about this compound? CN(C)CCNC(=O)P(=O)(O)O
20

---

# key: entry, value: IC50
# study-system: recombinant MMP-2 (Homo sapiens)
# Construct: purchased
# protocol: MMP inhibitory potency in vitro, succinylated-gelatin colorimetric assay
# Assay type: biochemical

- molecule: "N[C@@H]1CCCC[C@@H]1NC(=O)P(=O)(O)O (relative stereo)"
  study-system: "recombinant MMP-2 (Homo sapiens)"
  result: "0.06 µM"
- molecule: "N[C@H]1CCCC[C@@H]1NC(=O)P(=O)(O)O (relative stereo) [Compound 11a]"
  study-system: "recombinant MMP-2 (Homo sapiens)"
  result: "20 µM"
- molecule: "O=C(N[C@@H]1C[C@@H]2CC[C@H]1C2)P(=O)(O)O (relative stereo)"
  study-system: "recombinant MMP-2 (Homo sapiens)"
  result: "0.1 µM"
- molecule: "O=P(O)(O)C(=S)NCC1CCCCC1"
  study-system: "recombinant MMP-2 (Homo sapiens)"
  result: "0.015 µM"
- molecule: "NCCNC(=O)P(=O)(O)O"
  study-system: "recombinant MMP-2 (Homo sapiens)"
  result: "0.8 µM"

// query IC50 value for entry O=P(O)(O)C(=S)NC1CCCCC1
0.1 µM

What about this molecule? CN(C)CCNC(=O)P(=O)(O)O
0.03 µM

What about this molecule? O=P(O)(O)C(=S)NC1CCCC1
0.07 µM

What about this molecule? O=C(N[C@@H]1C[C@H]2CC[C@@H]1C2)P(=O)(O)O (relative stereo) [Compound 10a]
15 µM

---

# Tested on: cancer cells
# protocol: Matrigel chemoinvasion assay (Boyden chambers)
# Assay type: cell-based
# settings: 6 h, read-out: Chemoinvasion % inhibition at 50 μM
readout-name: inhibition at 50 µM
Output should be the measured figure followed by the unit it is expressed in.

- compound: "NCCNC(=O)P(=O)(O)O [Compound 6, H2N(CH2)2NHCOPO3H2]"
  inhibition at 50 µM: "45%"

// query inhibition at 50 µM value for entry O=P(O)(O)C(=S)NC1CCCC1 [Compound 2, CyclopentylNHCSPO3H2]
70%

What about this compound? O=C(NC1CCCCC1)P(=O)(O)O [Compound 3, CyclohexylNHCOPO3H2]
46%

What about this compound? O=C(NC1CCCC1)P(=O)(O)O [Compound 1, CyclopentylNHCOPO3H2]
65%

What about this compound? O=C(N[C@@H]1C[C@@H]2CC[C@H]1C2)P(=O)(O)O (relative stereo) [Compound 10]
25%

What about this compound? O=P(O)(O)C(=S)NC1CCCCC1 [Compound 4, CyclohexylNHCSPO3H2]
50%

What about this compound? CN(C)CCNC(=O)P(=O)(O)O [Compound 7, Me2N(CH2)2NHCOPO3H2]
66%

What about this compound? O=C(NCC1CCCCC1)P(=O)(O)O [Compound 5]
50%

What about this compound? O=P(O)(O)C(=S)NCC1CCCCC1 [Compound 8]
70%

What about this compound? N[C@@H]1CCCC[C@@H]1NC(=O)P(=O)(O)O (relative stereo) [Compound 11]
62%

---

# study-system: MMP-1 (Homo sapiens)
# Sequence (P03956 100-469): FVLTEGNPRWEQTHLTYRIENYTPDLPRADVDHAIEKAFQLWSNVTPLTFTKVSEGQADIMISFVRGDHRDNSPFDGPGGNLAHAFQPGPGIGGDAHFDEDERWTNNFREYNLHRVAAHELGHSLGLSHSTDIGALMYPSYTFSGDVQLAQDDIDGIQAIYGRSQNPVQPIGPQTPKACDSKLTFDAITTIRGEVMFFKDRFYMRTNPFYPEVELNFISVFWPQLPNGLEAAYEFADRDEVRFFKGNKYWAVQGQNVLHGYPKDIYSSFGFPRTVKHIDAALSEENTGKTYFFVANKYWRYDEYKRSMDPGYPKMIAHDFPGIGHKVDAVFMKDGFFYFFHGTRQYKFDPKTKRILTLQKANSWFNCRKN
# key: entry, value: pIC50
Note on pIC50: it is the negative log10 of concentration, concentration in mol/L.

- compound: "N[C@H]1CCCC[C@@H]1NC(=O)P(=O)(O)O (relative stereo) [Compound 11a]"
  result-number: 4.05
- compound: "C[C@H](NC(=O)P(=O)(O)O)C1CCCCC1"
  result-number: 5.70

Form: Entry = O=C(N[C@@H]1C[C@H]2CC[C@@H]1C2)P(=O)(O)O (relative stereo) [Compound 10a] | System = MMP-1 (Homo sapiens) | pIC50 = ____
6.00
